Property: Ratio IC50; scope: individual compounds
# Tested on: Zea mays
# assay-protocol: Selectivity for IC50 of maize histone deacetylase 1A over IC50 of maize histone deacetylase 1B
// no unit, no text: just the number

Data request: I'd like to know its Ratio IC50. The compound in question is Cn1cc(/C=C/C(=O)c2ccc3ccccc3c2)cc1/C=C/C(=O)NO
Data returned: 45

Data request: I'd like to know its Ratio IC50. The compound in question is Cn1cc(/C=C/C(=O)c2ccc(F)cc2)cc1/C=C/C(=O)NO
Data returned: 1.6

Data request: I'd like to know its Ratio IC50. The compound in question is Cn1cc(/C=C/C(=O)c2cccc(C(F)(F)F)c2)cc1/C=C/C(=O)NO
Data returned: 17.1

Data request: I'd like to know its Ratio IC50. The compound in question is Cn1cc(/C=C/C(=O)c2ccc(Cl)c(Cl)c2)cc1/C=C/C(=O)NO
Data returned: 3.6

Data request: I'd like to know its Ratio IC50. The compound in question is Cc1ccc(C(=O)/C=C/c2cc(/C=C/C(=O)NO)n(C)c2)cc1
Data returned: 9.6

----------
# tgt: UniProt Q9ZTP8
# assay-protocol: Inhibition of maize histone deacetylase 1B
# test-settings: read-out: pIC50 (converted)
IC50 strictly under 1000 nM means Condition met; at 1000 nM or over means Condition not met.

Field: example entries. Status: answers known.
# sample-smiles, discrete-label
data = [
    ("Cn1cc(/C=C/C(=O)c2cc(F)ccc2F)cc1/C=C/C(=O)NO", "Condition met"),
    ("Cn1cc(/C=C/C(=O)c2ccc(F)c(Cl)c2)cc1/C=C/C(=O)NO", "Condition met"),
    ("Cn1cc(/C=C/C(=O)c2c(F)cccc2F)cc1/C=C/C(=O)NO", "Condition not met"),
    ("Cn1cc(/C=C2\\CCCc3ccccc3C2=O)cc1/C=C/C(=O)NO", "Condition not met"),
    ("Cn1cc(/C=C2\\CCc3ccccc3C2=O)cc1/C=C/C(=O)NO", "Condition met"),
]

Alright, here's another molecule for you.
Data request: Record Cn1cc(/C=C/C(=O)c2cc3ccccc3o2)cc1/C=C/C(=O)NO : is its IC50 strictly below 1000 nM?
Data returned: Condition not met

----------
# tgt: Histone deacetylase HD1B (Zea mays, UniProt Q9ZTP8)
# Sequence (Q9ZTP8 whole entry): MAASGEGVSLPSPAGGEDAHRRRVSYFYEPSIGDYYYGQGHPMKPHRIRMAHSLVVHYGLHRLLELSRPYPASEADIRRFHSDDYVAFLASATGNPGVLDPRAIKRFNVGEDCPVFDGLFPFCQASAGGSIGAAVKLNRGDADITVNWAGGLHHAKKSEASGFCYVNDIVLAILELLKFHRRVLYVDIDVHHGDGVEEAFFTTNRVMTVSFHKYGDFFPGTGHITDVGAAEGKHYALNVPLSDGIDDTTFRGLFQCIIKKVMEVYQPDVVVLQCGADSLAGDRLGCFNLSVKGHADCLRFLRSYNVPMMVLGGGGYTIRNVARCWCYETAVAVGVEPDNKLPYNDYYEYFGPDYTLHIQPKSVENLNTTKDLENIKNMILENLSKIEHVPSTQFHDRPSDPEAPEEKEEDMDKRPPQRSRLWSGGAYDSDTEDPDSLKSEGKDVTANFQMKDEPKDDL
# assay-protocol: Inhibition of maize histone deacetylase 1B
# test-settings: read-out: IC50
IC50 strictly under 20 µM means 1; at 20 µM or over means 0.

Field: example entries. Status: answers known.
# sample-smiles, discrete-label
rows = [
    ("Cn1cc(/C=C/C(=O)c2cc3ccccc3o2)cc1/C=C/C(=O)NO", 1),
    ("Cn1cc(/C=C/C(=O)c2c(F)cccc2F)cc1/C=C/C(=O)NO", 1),
    ("Cn1cc(/C=C/C(=O)c2cc(F)cc(F)c2)cc1/C=C/C(=O)NO", 0),
    ("Cn1cc(/C=C/C(=O)c2cccc(Cl)c2)cc1/C=C/C(=O)NO", 0),
    ("Cn1cc(/C=C/C(=O)c2ccsc2)cc1/C=C/C(=O)NO", 0),
    ("Cc1ccccc1C(=O)/C=C/c1cc(/C=C/C(=O)NO)n(C)c1", 1),
    ("Cn1cc(/C=C/C(=O)c2cccc3ccccc23)cc1/C=C/C(=O)NO", 1),
    ("Cn1cc(/C=C2\\CCc3ccccc3C2=O)cc1/C=C/C(=O)NO", 0),
]

Data request: Record Cn1cc(/C=C/C(=O)c2ccc(Cl)cc2Cl)cc1/C=C/C(=O)NO : is its IC50 strictly below 20 µM?
Data returned: 1

Data request: Record Cn1cc(/C=C/C(=O)c2ccc3c(c2)CCO3)cc1/C=C/C(=O)NO : is its IC50 strictly below 20 µM?
Data returned: 1
